Data origin, for the record: patent US10125098B2

# TARGET_UNDER_TEST: NaV1.5 (Homo sapiens)
# Construct: permanently transfected with an expression vector containing the full-length cDNA coding for the desired human sodium channel α-subunit; expressed in transfected cells; host or cells: HEK-293
# TEST: Patch voltage clamp electrophysiology assay (EP), NaV1.5
# Format: cell-based
# CONDITIONS_USED: HEK-293 cells stably expressing NaV1.5 with β1 subunit; whole-cell patch clamp, membrane potential −60 mV (inactivated state); read-out: Nav1.5
pIC50: −log10 of the molar value.
Overview of recorded pIC50 for various molecules
QUANTITY_KIND: pIC50

1) CC1(C)SCN(C(=O)c2cc(C3CC3)c(OCC34CC5CC(CC(C5)C3)C4)cc2F)[C@@H]1C(=O)O: 5.03
2) O=C(O)C1COCCN1C(=O)c1cc(C2CC2)c(OCC23CC4CC(CC(C4)C2)C3)cc1F (stereo not drawn): 4.62
3) O=C(c1cc(C2CC2)c(OCC23CC4CC(CC(C4)C2)C3)cc1F)N1C[C@H](F)C[C@H]1C(O)(C(F)(F)F)C(F)(F)F: 4.62
4) C[C@H]1OCN(C(=O)c2cc(C3CC3)c(OCC3CCN([C@@H](c4cc(Cl)cc(Cl)c4)C(F)(F)F)CC3)cc2F)[C@@H]1C(=O)O (single isomer, unassigned) [Example 138b]: 4.96
5) O=C(O)[C@@H]1CCCN1C(=O)c1ccc(OCC23CC4CC(CC(C4)C2)C3)c(C(F)(F)F)c1: 4.77
6) O=C(O)[C@@H]1CC(F)(F)CN1C(=O)c1cc(C2CC2)c(OCC23CC4CC(CC(C4)C2)C3)cc1F [Example 145]: 4.80

---

# TARGET_UNDER_TEST: NaV1.5 (Homo sapiens, UniProt Q14524)
# Construct: permanently transfected with an expression vector containing the full-length cDNA coding for the desired human sodium channel α-subunit; expressed in transfected cells; host or cells: HEK-293
# Sequence (Q14524 whole entry): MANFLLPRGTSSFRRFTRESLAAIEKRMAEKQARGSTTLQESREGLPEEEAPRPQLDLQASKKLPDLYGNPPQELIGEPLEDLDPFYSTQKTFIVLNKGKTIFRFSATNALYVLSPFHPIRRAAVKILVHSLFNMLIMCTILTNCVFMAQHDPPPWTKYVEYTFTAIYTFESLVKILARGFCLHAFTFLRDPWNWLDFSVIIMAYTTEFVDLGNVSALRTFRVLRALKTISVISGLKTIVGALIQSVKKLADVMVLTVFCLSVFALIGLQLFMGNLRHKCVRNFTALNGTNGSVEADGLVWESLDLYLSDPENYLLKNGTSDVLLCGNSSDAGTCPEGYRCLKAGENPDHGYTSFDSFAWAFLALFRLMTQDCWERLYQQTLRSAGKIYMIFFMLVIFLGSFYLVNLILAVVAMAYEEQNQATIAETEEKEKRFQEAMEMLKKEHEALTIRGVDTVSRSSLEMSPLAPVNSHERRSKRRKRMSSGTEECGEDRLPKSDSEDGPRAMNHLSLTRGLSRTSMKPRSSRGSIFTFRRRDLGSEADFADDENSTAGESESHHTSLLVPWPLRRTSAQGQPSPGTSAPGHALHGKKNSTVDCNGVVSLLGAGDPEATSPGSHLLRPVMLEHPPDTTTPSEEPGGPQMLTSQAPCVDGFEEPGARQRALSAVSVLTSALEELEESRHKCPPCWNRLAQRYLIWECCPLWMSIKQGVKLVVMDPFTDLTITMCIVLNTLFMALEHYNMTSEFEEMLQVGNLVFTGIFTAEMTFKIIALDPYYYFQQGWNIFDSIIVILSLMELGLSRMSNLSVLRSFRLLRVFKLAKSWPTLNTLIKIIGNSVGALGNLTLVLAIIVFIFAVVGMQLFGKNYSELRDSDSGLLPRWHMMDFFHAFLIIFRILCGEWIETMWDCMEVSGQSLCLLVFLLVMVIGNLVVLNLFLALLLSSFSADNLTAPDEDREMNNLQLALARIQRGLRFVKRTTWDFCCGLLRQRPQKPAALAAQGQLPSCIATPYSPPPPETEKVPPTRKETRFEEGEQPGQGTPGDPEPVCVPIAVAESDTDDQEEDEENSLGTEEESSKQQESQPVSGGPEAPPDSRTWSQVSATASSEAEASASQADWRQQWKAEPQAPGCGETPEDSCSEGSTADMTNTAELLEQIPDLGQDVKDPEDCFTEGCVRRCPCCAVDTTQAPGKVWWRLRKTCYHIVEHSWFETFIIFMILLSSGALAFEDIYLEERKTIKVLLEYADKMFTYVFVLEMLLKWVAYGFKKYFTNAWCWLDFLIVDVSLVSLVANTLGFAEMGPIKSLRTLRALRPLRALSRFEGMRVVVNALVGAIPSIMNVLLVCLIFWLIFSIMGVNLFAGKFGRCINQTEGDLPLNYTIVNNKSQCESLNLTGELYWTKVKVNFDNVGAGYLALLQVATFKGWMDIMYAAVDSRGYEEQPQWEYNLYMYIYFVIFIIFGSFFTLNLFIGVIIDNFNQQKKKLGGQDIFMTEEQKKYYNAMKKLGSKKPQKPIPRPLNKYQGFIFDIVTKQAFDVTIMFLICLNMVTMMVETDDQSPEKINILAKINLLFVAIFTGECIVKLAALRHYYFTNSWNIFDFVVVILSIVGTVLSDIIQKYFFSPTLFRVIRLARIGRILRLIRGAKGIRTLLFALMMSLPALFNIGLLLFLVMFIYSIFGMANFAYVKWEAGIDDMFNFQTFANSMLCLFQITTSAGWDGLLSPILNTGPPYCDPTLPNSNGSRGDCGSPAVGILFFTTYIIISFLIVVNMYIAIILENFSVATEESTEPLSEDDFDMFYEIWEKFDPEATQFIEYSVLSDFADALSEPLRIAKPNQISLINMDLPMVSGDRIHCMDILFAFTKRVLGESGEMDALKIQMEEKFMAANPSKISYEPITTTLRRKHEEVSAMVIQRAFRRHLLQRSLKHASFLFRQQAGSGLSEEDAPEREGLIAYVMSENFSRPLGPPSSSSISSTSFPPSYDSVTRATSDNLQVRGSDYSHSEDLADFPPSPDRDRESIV
# TEST: Patch voltage clamp electrophysiology assay (EP), NaV1.5
# Type: cell-based
# CONDITIONS_USED: HEK-293 cells stably expressing NaV1.5 with β1 subunit; whole-cell patch clamp, membrane potential −60 mV (inactivated state); read-out: Nav1.5
pIC50: −log10 of the molar value.
QUANTITY_KIND: pIC50

1) O=C(NC(C(=O)O)C1CC1)c1cc(C2CC2)c(COc2cc(Cl)cc(OC(F)(F)F)c2)cc1F (stereo in doubt): 4.85
2) COC1(C(F)(F)F)C[C@@H](C(=O)O)N(C(=O)c2cc(C3CC3)c(OCC34CC5CC(CC(C5)C3)C4)cc2F)C1 (stereo partly shown): 4.96
3) CC1(C)CCC(C(=O)O)N1C(=O)c1cc(C2CC2)c(OCC23CC4CC(CC(C4)C2)C3)cc1F (stereo not shown): 4.85
4) C[C@@H]1OCN(C(=O)c2cc(C3CC3)c(OCC34CC5CC(CC(C5)C3)C4)cc2F)[C@H]1C(=O)O: 5.33
5) CCc1cc(C(=O)N2CCC[C@H]2C(=O)O)c(F)cc1OCC12CC3CC(CC(C3)C1)C2: 4.77
6) O=C(O)[C@@H]1CC(O)(C(F)(F)F)CN1C(=O)c1cc(C2CC2)c(OCC23CC4CC(CC(C4)C2)C3)cc1F (stereo partly shown): 5.12
7) C[C@@H]1[C@@H](C(=O)O)N(C(=O)c2cc(C3CC3)c(OCC34CC5CC(CC(C5)C3)C4)cc2F)C[C@@H]1F: 4.92
8) CC(C)[C@@H](C(=O)O)N(C)C(=O)c1cc(C2CC2)c(OCC23CC4CC(CC(C4)C2)C3)cc1F: 5.12
9) C[C@@H](O)[C@H](NC(=O)c1cc(C2CC2)c(OCC23CC4CC(CC(C4)C2)C3)cc1F)C(=O)O: 4.64
10) O=C(O)C1SCCN1C(=O)c1cc(C2CC2)c(OCC23CC4CC(CC(C4)C2)C3)cc1F (stereo not shown): 4.89

---

# TARGET_UNDER_TEST: hNav1.7 (Homo sapiens, UniProt Q15858)
# Sequence (Q15858 1-1977 isoform Q15858-3): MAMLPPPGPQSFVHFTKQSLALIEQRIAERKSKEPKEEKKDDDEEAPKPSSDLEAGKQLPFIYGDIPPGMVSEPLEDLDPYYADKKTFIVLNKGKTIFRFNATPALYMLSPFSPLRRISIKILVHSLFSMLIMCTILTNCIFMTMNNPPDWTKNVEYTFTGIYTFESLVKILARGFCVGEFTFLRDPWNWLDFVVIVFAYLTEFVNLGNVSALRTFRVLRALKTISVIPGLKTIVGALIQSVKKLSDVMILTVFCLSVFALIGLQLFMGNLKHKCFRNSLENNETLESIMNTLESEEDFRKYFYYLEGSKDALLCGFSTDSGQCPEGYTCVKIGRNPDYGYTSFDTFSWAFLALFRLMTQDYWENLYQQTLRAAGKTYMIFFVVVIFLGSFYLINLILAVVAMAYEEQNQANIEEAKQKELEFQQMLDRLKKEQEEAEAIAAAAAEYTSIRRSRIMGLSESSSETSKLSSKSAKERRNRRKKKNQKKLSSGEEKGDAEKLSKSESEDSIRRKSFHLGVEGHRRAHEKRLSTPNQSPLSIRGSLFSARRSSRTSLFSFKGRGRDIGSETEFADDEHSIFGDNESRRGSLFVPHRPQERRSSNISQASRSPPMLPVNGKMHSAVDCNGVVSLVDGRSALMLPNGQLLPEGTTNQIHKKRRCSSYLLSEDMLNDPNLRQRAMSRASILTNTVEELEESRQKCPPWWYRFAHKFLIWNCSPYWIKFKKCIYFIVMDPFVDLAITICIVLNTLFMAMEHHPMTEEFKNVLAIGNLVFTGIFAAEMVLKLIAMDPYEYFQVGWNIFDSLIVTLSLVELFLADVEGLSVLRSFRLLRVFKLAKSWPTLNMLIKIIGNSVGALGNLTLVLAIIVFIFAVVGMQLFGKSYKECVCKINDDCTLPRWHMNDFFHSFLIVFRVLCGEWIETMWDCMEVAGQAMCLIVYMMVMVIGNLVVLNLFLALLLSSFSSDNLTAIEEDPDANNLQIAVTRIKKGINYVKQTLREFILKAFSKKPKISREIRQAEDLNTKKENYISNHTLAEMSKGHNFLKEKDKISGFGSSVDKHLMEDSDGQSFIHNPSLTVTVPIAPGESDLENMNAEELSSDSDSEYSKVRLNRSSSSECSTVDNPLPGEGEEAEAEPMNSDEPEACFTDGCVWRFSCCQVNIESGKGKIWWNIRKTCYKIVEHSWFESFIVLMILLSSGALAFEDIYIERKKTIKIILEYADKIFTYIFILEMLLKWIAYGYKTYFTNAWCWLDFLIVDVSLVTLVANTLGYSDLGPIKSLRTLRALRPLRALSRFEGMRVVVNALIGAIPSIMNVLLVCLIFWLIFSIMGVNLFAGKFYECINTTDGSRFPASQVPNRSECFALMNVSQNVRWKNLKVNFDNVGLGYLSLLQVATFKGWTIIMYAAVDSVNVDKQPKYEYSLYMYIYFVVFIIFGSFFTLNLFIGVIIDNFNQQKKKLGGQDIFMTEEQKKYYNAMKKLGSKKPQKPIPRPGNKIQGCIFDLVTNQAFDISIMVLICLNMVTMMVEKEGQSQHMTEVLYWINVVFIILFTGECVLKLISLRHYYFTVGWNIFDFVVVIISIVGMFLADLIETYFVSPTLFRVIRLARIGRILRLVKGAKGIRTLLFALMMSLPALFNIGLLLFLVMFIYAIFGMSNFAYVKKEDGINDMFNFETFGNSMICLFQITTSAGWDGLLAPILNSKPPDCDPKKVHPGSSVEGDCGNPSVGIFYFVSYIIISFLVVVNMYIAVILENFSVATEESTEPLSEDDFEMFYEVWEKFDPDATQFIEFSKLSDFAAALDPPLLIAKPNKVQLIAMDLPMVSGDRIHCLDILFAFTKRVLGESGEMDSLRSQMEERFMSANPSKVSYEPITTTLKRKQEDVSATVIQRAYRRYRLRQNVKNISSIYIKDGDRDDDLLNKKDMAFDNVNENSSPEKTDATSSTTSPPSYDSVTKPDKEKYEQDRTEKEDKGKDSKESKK
# Sequence (Q07699 19-218 partner): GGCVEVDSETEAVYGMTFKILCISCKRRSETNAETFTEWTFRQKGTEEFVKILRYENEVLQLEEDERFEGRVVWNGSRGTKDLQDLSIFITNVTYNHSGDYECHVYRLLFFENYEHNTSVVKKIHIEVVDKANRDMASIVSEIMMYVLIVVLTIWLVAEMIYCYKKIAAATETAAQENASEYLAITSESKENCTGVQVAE
# TEST: Tritiated compound binding (LBA) to membranes from cells expressing hNav1.7 and the β1 subunit, competitive binding
# CONDITIONS_USED: competitive binding vs 100 pM [3H]compound, 18 h, room temperature, membranes with hNav1.7 and β1 subunit
pIC50: −log10 of the molar value. Where a name gives a salt, the structure may show the parent alone.
Values of pIC50 greater than or equal to 7 map to y; values below map to n.

1) O=C(O)[C@@H]1[C@H]2CC[C@H](C2)N1C(=O)c1cc(C2CC2)c(OCC23CC4CC(CC(C4)C2)C3)cc1F [Example 146]: n
2) Cc1cc(C(=O)N2CCC[C@H]2C(=O)O)c(F)cc1OCC12CC3CC(CC(C3)C1)C2 [Example 40]: n
3) CC(C)[C@H](NC(=O)c1cc(C2CC2)c(OCC2(F)CCN(Cc3cc(Cl)cc(C(F)(F)F)c3)CC2)cc1F)C(=O)O [Example 216]: n
4) O=C(NC(C(=O)O)C1CC1)c1cc(C2CC2)c(COc2cc(Cl)cc(OC(F)(F)F)c2)cc1F (stereo in doubt) [Example 120]: y
5) O=C(O)[C@@H]1CC(F)(F)CN1C(=O)c1cc(C2CC2)c(OCC23CC4CC(CC(C4)C2)C3)cc1F [Example 48]: y
6) CC1(C)[C@@H]2[C@@H](C(=O)O)N(C(=O)c3cc(C4CC4)c(OCC45CC6CC(CC(C6)C4)C5)cc3F)C[C@@H]21 [Example 202]: n
7) O=C(O)[C@@H]1CCCN1C(=O)c1cc(F)c(Oc2ccc(Cl)cc2-c2ccnn2C2CNC2)cc1F [Example 34, trifluoroacetic acid salt]: n
8) CC(C)Nc1ccc(F)cc1CN1CCC(COc2cc(F)c(C(=O)N3C[C@H](F)C[C@H]3C(=O)O)cc2C2CC2)CC1 [Example 107]: y
9) O=C(O)[C@@H]1CCCN1C(=O)c1cc(Cl)c(Oc2cnc(OCC(F)(F)F)c(Cl)c2)cc1F [Example 24, trifluoroacetic acid salt]: n
10) C[C@@H]1[C@@H](C(=O)O)N(C(=O)c2cc(C3CC3)c(OCC3(F)CCN(Cc4cc(C(F)(F)F)ccc4Cl)CC3)cc2F)C[C@@H]1F [Example 111]: y
11) C[C@H]1OCN(C(=O)c2cc(C3CC3)c(OCC3(C)CN([C@H](c4ccccc4)c4cc(Cl)cc(Cl)c4)C3)cc2F)[C@@H]1C(=O)O [Example 229]: y

---

# TARGET_UNDER_TEST: human NaV1.7 (Homo sapiens)
# Construct: permanently transfected with an expression vector containing the full-length cDNA coding for the desired human sodium channel α-subunit
# Sequence (Q15858 1-1977 isoform Q15858-3): as the sequence (Q15858 1-1977 isoform Q15858-3) above
# Sequence (Q07699 19-218 partner): as the sequence (Q07699 19-218 partner) above
# TEST: Patch voltage clamp electrophysiology assay (EP), NaV1.7
# CONDITIONS_USED: HEK-293 cells stably expressing NaV1.7 with β1 subunit; whole-cell patch clamp, membrane potential −60 mV (inactivated state)
pIC50: −log10 of the molar value. Where a name gives a salt, the structure may show the parent alone.
Overview of recorded pIC50 for various compounds
QUANTITY_KIND: pIC50

1) O=C(O)C1CC=NN1C(=O)c1cc(C2CC2)c(OCC23CC4CC(CC(C4)C2)C3)cc1F (stereo not shown): 5.82
2) C[C@@H](c1cc(Cl)cc(Cl)c1)N1CCC(COc2cc(F)c(C(=O)N3[C@@H]4C[C@@H]4C[C@H]3C(=O)O)cc2C2CC2)CC1: 5.51
3) CC(c1cc(Cl)cc(Cl)c1)N1CCC(COc2cc(F)c(C(=O)N3CCC[C@H]3C(=O)O)cc2C2CC2)CC1 (single isomer, unassigned) [Example 79b]: 6.10
4) O=C(O)[C@@H]1C[C@@H](F)CN1C(=O)c1cc(C2CC2)c(OCC23CC4CC(CC(C4)C2)C3)cc1F: 6.64
5) C[C@@H]1[C@@H](C(=O)O)N(C(=O)c2cc(C3CC3)c(OCC3(F)CCN(Cc4cc(C(F)(F)F)ccc4Cl)CC3)cc2F)C[C@@H]1F: 6.64
6) CC1[C@@H](C(=O)O)N(C(=O)c2cc(C3CC3)c(OCC3(F)CCN([C@@H](C)c4cc(Cl)cc(Cl)c4)CC3)cc2F)C[C@@H]1F (stereo partly shown): 6.15
7) C[C@@H]1SCN(C(=O)c2cc(C3CC3)c(OCC34CC5CC(CC(C5)C3)C4)cc2F)[C@H]1C(=O)O [Example 142b]: 5.52
8) CC(c1cc(Cl)cc(Cl)c1)N1CCC(COc2cc(F)c(C(=O)N3C[C@H](F)C[C@H]3C(=O)O)cc2C2CC2)CC1 (stereo partly shown): 6.52
9) O=C(O)[C@@H]1CCCN1C(=O)c1cc(C2CC2)c(OC2C3CC4CC(C3)CC2C4)cc1F (stereo partly shown): 5.80
10) O=C(O)[C@@H]1CCCN1C(=O)c1cc(Cl)c(OC2C3CC4CC2CC(Cl)(C4)C3)cc1F (single isomer, unassigned): 4.80
11) O=C(O)[C@@H]1C=C(C(F)(F)F)CN1C(=O)c1cc(C2CC2)c(OCC23CC4CC(CC(C4)C2)C3)cc1F: 5.00
12) O=C(O)[C@@H]1CCCN1C(=O)c1cc(C2CCC2)c(OCC23CC4CC(CC(C4)C2)C3)cc1F [Example 194, trifluoroacetate]: 6.19
13) CC1(C)[C@@H]2[C@@H](C(=O)O)N(C(=O)c3cc(C4CC4)c(OCC45CC6CC(CC(C6)C4)C5)cc3F)C[C@@H]21: 5.36
